read-out: CD40, CD40 (gene 958); test: BSK_SAg_CD40: BioMAP Diversity Plus: SAg Assay for CD40 Biomarker Activity (AID 2283088); settings: primary human HUVEC with PBMC; actives raise or lower the signal
The source made the active and inactive calls. The calls were made as follows: active = hit-call score of the fitted dose curve at least 0.9, where 1 is the maximum; inactive = score below 0.9.
Possible outcomes: T = active, F = inactive

{"Compound": "Oc1ccc(Cc2ccccc2O)cc1", "Label value": "F"}
{"Compound": "C=COC(=O)C(C)(C)CCCCCC", "Label value": "T"}
{"Compound": "CCCCC(CC)C(=O)OCCOCCOCCOCCOC(=O)C(CC)CCCC (stereo not drawn)", "Label value": "F"}

----------
assay: CCTE_Shafer_MEA_acute_cross_correlation_area: CCTE's Neural Acute Assay for Area of Cross Correlation, Shafer Lab (AID 2284024);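 also: rat primary cortical neuron networks on 48-well MEA at DIV 13 or 15 with 40 min exposure; area under pooled inter-electrode spike cross-correlation near zero lag as percent change from own baseline; curves fitted for loss of cross-correlation area so actives lower synchrony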
Active and inactive are the calls of the source. The calls were made as follows: active = hit-call score of the fitted dose curve at least 0.9, where 1 is the maximum; inactive = score below 0.9.

{"Smiles text": "CC(=O)Nc1ccc(O)cc1", "outcome": "inactive"}
{"Smiles text": "N=C(N)c1ccc(OCCCCCOc2ccc(C(=N)N)cc2)cc1", "outcome": "inactive"}
{"Smiles text": "CCCCC=O", "outcome": "inactive"}

----------
assay: CCTE_Padilla_ZF_Score.Living: CCTE's 144 Hour Post-fertilization zebrafish Assay Score for Viability, Padilla Lab (AID 2284410);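 also: larval death at 6 dpf judged by absent heartbeat or coagulation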
Calls of active or inactive are those of the source. The calls were made as follows: active = hit-call score of the fitted dose curve at least 0.9, where 1 is the maximum; inactive = score below 0.9.
Possible outcomes: class 1 for active, class 0 for inactive

{"Molecule": "OCC(F)(F)C(F)(F)C(F)(F)C(F)(F)C(F)(F)C(F)(F)C(F)(F)C(F)(F)C(F)(F)C(F)(F)C(F)(F)F", "Label value": "class 0"}
{"Molecule": "O=C(OC(=O)C(F)(F)C(F)(F)F)C(F)(F)C(F)(F)F", "Label value": "class 0"}
{"Molecule": "O=P(O)(O)CCC(F)(F)C(F)(F)C(F)(F)C(F)(F)C(F)(F)C(F)(F)C(F)(F)C(F)(F)F", "Label value": "class 1"}
{"Molecule": "O=C(O)CCC(F)(F)C(F)(F)C(F)(F)C(F)(F)C(F)(F)F", "Label value": "class 1"}
{"Molecule": "O=P(O)(O)CCC(F)(F)C(F)(F)C(F)(F)C(F)(F)C(F)(F)C(F)(F)F", "Label value": "class 1"}
{"Molecule": "CN(CCO)S(=O)(=O)C(F)(F)C(F)(F)C(F)(F)C(F)(F)C(F)(F)C(F)(F)C(F)(F)C(F)(F)F", "Label value": "class 1"}
{"Molecule": "FC(OC(F)(F)C(F)(F)C(F)(F)F)C(F)(F)F (stereo not drawn)", "Label value": "class 0"}
{"Molecule": "FC(F)(F)N1C(F)(F)C(F)(F)OC(F)(F)C1(F)F", "Label value": "class 0"}
{"Molecule": "O=CC(F)(F)C(F)(F)C(F)(F)F", "Label value": "class 0"}
{"Molecule": "C=CC(F)(F)C(F)(F)C(F)(F)C(F)(F)F", "Label value": "class 0"}
{"Molecule": "O=C1OC(=O)C(F)(F)C1(F)F", "Label value": "class 0"}
{"Molecule": "FC1(F)C=CC(F)(F)C1(F)F", "Label value": "class 0"}
{"Molecule": "O=CC(F)(F)C(F)(F)C(F)(F)C(F)F", "Label value": "class 0"}

----------
read-out: Early growth response protein 1 (EGR1) transcription factor, EGR1 (gene 1958); experiment: LTEA_HepaRG_EGR1: Life Technologies and Expression Analysis (LTEA) Assay for Early growth response protein 1 (EGR1) transcription factor using HepaRG (AID 2283490); settings: mRNA level, 48 h; actives raise or lower the signal
Active and inactive are the calls of the source. Rule for the calls: active = hit-call score of the fitted dose curve at least 0.9, where 1 is the maximum; inactive = score below 0.9.
Possible outcomes: active, inactive

{"Smiles text": "O=C1NS(=O)(=O)c2ccccc21", "Label value": "inactive"}
{"Smiles text": "CCCCc1oc2ccccc2c1C(=O)c1cc(I)c(OCCN(CC)CC)c(I)c1", "Label value": "active"}
{"Smiles text": "CN(Cc1cnc2nc(N)nc(N)c2n1)c1ccc(C(=O)N[C@@H](CCC(=O)O)C(=O)O)cc1", "Label value": "active"}
{"Smiles text": "O=C(c1ccccc1)c1ccccc1", "Label value": "inactive"}
{"Smiles text": "N=C(N)c1ccc(OCCCCCOc2ccc(C(=N)N)cc2)cc1", "Label value": "active"}

----------
read-out: Interleukin-6 (IL6), IL6 (gene 3569); assay: BSK_CASM3C_IL6: BioMAP Diversity Plus: CASM3C Assay for Interleukin-6 (IL6) Biomarker Activity for (AID 2283040); settings: primary human coronary artery smooth muscle cells; actives raise or lower the signal
Calls of active or inactive are those of the source. The calls were made as follows: active = hit-call score of the fitted dose curve at least 0.9, where 1 is the maximum; inactive = score below 0.9.
Measurement name: AC50

{"Compound": "C=CC(C)(CCC=C(C)C)OC(C)=O (stereo not drawn)", "Measurement name": "AC50", "Data value": "inactive"}
{"Compound": "C=CC(=O)OCCC(F)(F)C(F)(F)C(F)(F)C(F)(F)C(F)(F)C(F)(F)C(F)(F)C(F)(F)F", "Measurement name": "AC50", "Data value": "inactive"}
{"Compound": "NC(=NCCCCCCN=C(N)/N=C(\\N)Nc1ccc(Cl)cc1)/N=C(\\N)Nc1ccc(Cl)cc1", "Measurement name": "AC50", "Data value": "7.19 µM (active)"}

----------
Test: ATG_SREBP_CIS: Attagene CIS-FACTORIAL HepG2 Assay for human Sterol Regulatory Element Binding (SREBP) (AID 2282962)
Settings: HepG2 Attagene cis-factorial SREBP reporter, mRNA; actives raise or lower the signal
Description: ATG_CIS is a cell-based, multiplexed-readout assay that uses HepG2, a human liver cell line, with measurements taken at 24 hours after chemical dosing in a 24-well plate.ATG_SREBP_CIS is one of 52 assay component(s) measured or calculated from the ATG_CIS assay. […] This assay endpoint, ATG_SREBP_CIS, was analyzed with bidirectional fitting relative to DMSO as the negative control and baseline of activity. […]
Active and inactive are the calls of the source. The calls were made as follows: active = hit-call score of the fitted dose curve at least 0.9, where 1 is the maximum; inactive = score below 0.9.
Possible outcomes: active, inactive

{"Compound": "CCCCCCc1ccc(N)cc1", "Label value": "inactive"}
{"Compound": "O=C1OC(=O)c2cc(-c3ccc4c(c3)C(=O)OC4=O)ccc21", "Label value": "inactive"}
{"Compound": "CS(=O)(=O)c1ccc([C@@H](CC2CCCC2)C(=O)Nc2cnccn2)cc1Cl", "Label value": "active"}
{"Compound": "CCCCCCCCCCCCCCC", "Label value": "inactive"}
{"Compound": "CC(C)CCOCCC(C)C", "Label value": "inactive"}
{"Compound": "CCc1cccc(CC)c1N(COC)C(=O)CS(=O)(=O)O", "Label value": "inactive"}
{"Compound": "CCCCCCCCCCCC(=O)NCCCN(C)C", "Label value": "active"}
{"Compound": "NS(=O)(=O)O", "Label value": "inactive"}
{"Compound": "CCc1ccccc1O", "Label value": "inactive"}
{"Compound": "COC(O)c1ccccc1 (stereo not drawn)", "Label value": "inactive"}
{"Compound": "CCCCCCCCCCCC[N+](C)(C)Cc1ccccc1", "Label value": "inactive"}
{"Compound": "NNC(=O)CCCCC(=O)NN", "Label value": "inactive"}
{"Compound": "FC(F)(F)C(F)(F)C(F)(F)Br", "Label value": "inactive"}
{"Compound": "Oc1ccc(Cc2ccccc2O)cc1", "Label value": "inactive"}
{"Compound": "CC(C)(c1ccc(Oc2ccc(N)cc2)cc1)c1ccc(Oc2ccc(N)cc2)cc1", "Label value": "inactive"}
{"Compound": "CCCCCCCCCCCCOC(=O)c1cc(O)c(O)c(O)c1", "Label value": "active"}
{"Compound": "CC1=CC(=O)c2ccccc2C1=O", "Label value": "inactive"}
{"Compound": "NC(C(F)(F)F)C(F)(F)F", "Label value": "inactive"}
{"Compound": "COC1=CC(=O)C[C@@H](C)[C@]12Oc1c(Cl)c(OC)cc(OC)c1C2=O", "Label value": "inactive"}
{"Compound": "CCCCC(CC)C(=O)OCCOCCOCCOCCOC(=O)C(CC)CCCC (stereo not drawn)", "Label value": "inactive"}
{"Compound": "FCOC(C(F)(F)F)C(F)(F)F", "Label value": "inactive"}
{"Compound": "c1cc[nH]c1", "Label value": "inactive"}
{"Compound": "CC1COCc2cc3c(cc21)C(C)(C)C(C)C3(C)C (stereo not drawn)", "Label value": "inactive"}
{"Compound": "CCN(CC)CC", "Label value": "inactive"}
{"Compound": "CCO[Si](C)(C)OCC", "Label value": "inactive"}
{"Compound": "Cc1ccc(S(=O)(=O)O)cc1", "Label value": "inactive"}
{"Compound": "CCCCCc1ccc(O)cc1", "Label value": "inactive"}
{"Compound": "c1ccc(CNc2ncnc3c2ncn3C2CCCCO2)cc1 (stereo not drawn)", "Label value": "inactive"}
{"Compound": "FC(F)(F)N1C(F)(F)C(F)(F)OC(F)(F)C1(F)F", "Label value": "inactive"}
{"Compound": "C=CC(=O)OCCN(CC)CC", "Label value": "active"}
{"Compound": "FC(F)(F)C1(F)C(F)(F)C(F)(F)C(F)(F)C1(F)F", "Label value": "inactive"}
{"Compound": "O=S(=O)(c1ccc(OCc2ccccc2)cc1)c1ccccc1O", "Label value": "active"}
{"Compound": "CCCCCCCCCCCC", "Label value": "inactive"}
{"Compound": "CCOCCOCC", "Label value": "inactive"}
{"Compound": "CCCCCCCCC(C)=O", "Label value": "inactive"}
{"Compound": "CCCCCCC(C)(C)C(=O)O", "Label value": "inactive"}
{"Compound": "CCc1cccc(CC)c1NC(=O)C(=O)O", "Label value": "inactive"}
{"Compound": "FC1(F)C=CC(F)(F)C1(F)F", "Label value": "inactive"}
{"Compound": "C=CC(=O)OCC(CO)(COCC(COC(=O)C=C)(COC(=O)C=C)COC(=O)C=C)COC(=O)C=C", "Label value": "active"}
{"Compound": "O=C1c2ccc(O)c(O)c2C(=O)c2c(O)ccc(O)c21", "Label value": "inactive"}
{"Compound": "CC1CNCC(C)O1 (stereo not drawn)", "Label value": "inactive"}
{"Compound": "Cc1cc(C(=C2C=CC(=Nc3ccc(S(=O)(=O)O)cc3)C=C2)c2ccc(Nc3ccc(S(=O)(=O)O)cc3)cc2)cc(S(=O)(=O)O)c1N", "Label value": "inactive"}
{"Compound": "Nc1cc(Cl)c(-c2cc(Cl)c(N)cc2Cl)cc1Cl", "Label value": "active"}
